test system: FADD−/− Jurkat cells; experiment: Necroptosis inhibition assay, TNF-α-induced necroptosis (CellTiter-Glo 2.0); assay type: cell-based, human; details: compound 1 μM; TNF-α 15 ng/mL
PARAMETER: Necroptosis inhibition assay (Rescue %) 1 μM

| COMPOUND | MEAS_VALUE |
| --- | --- |
| Nc1ncc(-c2cnn(C3CCN(CCCCCCCCCCNC(=O)COc4ccc5c(c4)C(=O)N(C4CCC(=O)NC4=O)C5=O)CC3)c2)nc1C(=O)O[C@@H](C(=O)Nc1ccc(F)cc1)c1ccccc1 (some centres unmarked) | 27.84% |
| Nc1ncc(-c2cnn([C@@H]3CCN(CC4CCN(C(=O)CNc5cccc6c5C(=O)N(C5CCC(=O)NC5=O)C6=O)CC4)C3)c2)nc1C(=O)OC(C(=O)Nc1ccc(F)cc1)c1ccccc1 (some centres unmarked) | 36.72% |
| Nc1ncc(-c2cnn(C3CCN(C(=O)c4cn(C5CCN(c6cccc7c6C(=O)N(C6CCC(=O)NC6=O)C7=O)CC5)cn4)CC3)c2)nc1C(=O)O[C@@H](C(=O)Nc1ccc(F)cc1)c1ccccc1 (some centres unmarked) | 22.41% |
| Nc1ncc(-c2cnn(C3CCN(CCC4CCN(C(=O)C5CCN(c6ccc7nnn(C8CCC(=O)NC8=O)c(=O)c7c6)CC5)CC4)CC3)c2)nc1C(=O)OC(C(=O)Nc1ccc(F)cc1)c1ccccc1 (centres unmarked) | 90.57% |
| Nc1ncc(-c2cnn(C3CCN(CC4CN(C(=O)COc5ccc6c(c5)C(=O)N(C5CCC(=O)NC5=O)C6=O)CCO4)CC3)c2)nc1C(=O)O[C@@H](C(=O)Nc1ccc(F)cc1)c1ccccc1 (some centres unmarked) | 46.50% |
